// provenance: the supplement of paper PMC13380429

Could you please report measured inhibition of SARS-CoV-2 cytopathic effect for the items listed next?
# Tested on: Vero E6 infected with SARS-CoV-2
# experiment_description: inhibition of SARS-CoV-2 cytopathic effect; higher = more antiviral protection, active = above 15
# test_conditions: 1 nM; 48 h

Required: inhibition of SARS-CoV-2 cytopathic effect, one value per compound below.
1. CN(C)[C@@H](CCOc1cccc2ccccc12)c1ccccc1
2. CCN1CCCC1=O
3. O=S(=O)(O)CCSSCCS(=O)(=O)O
4. CC(=O)Nc1ccc(C(=O)O)cc1
5. Oc1cc(O)cc(O)c1
6. Nc1ncnc2c1ncn2CCOCP(=O)(O)O

Result string:
1: 1.42% (inactive); 2: -1.68% (inactive); 3: -0.79% (inactive); 4: -1.13% (inactive); 5: 3.42% (inactive); 6: 6.28% (inactive)

---

For each record, write down the corresponding inhibition of SARS-CoV-2 cytopathic effect.
# System: Vero E6 infected with SARS-CoV-2
# experiment_description: inhibition of SARS-CoV-2 cytopathic effect; higher = more antiviral protection, active = above 15
# test_conditions: 8.33 nM; 48 h

[
  {
    "compound": "N[C@H](C(=O)O)c1ccc(O)cc1",
    "value_reported": "3.82% (inactive)"
  },
  {
    "compound": "O=S(=O)(O)c1cc(I)c(O)c2ncccc12",
    "value_reported": "-0.47% (inactive)"
  },
  {
    "compound": "N#CC(c1ccc(Cl)cc1)c1c(Cl)cc(-n2ncc(=O)[nH]c2=O)cc1Cl (centres undefined)",
    "value_reported": "-0.75% (inactive)"
  },
  {
    "compound": "CCCOc1ccc2c(c1)CC[C@@H]1[C@@H]2CC[C@]2(C)[C@@H](OC)CC[C@@H]12",
    "value_reported": "-1.33% (inactive)"
  },
  {
    "compound": "CN(C)CCCC1(c2ccc(F)cc2)OCc2cc(C#N)ccc21 (centres undefined)",
    "value_reported": "2.58% (inactive)"
  }
]

Batch lookup, inhibition of SARS-CoV-2 cytopathic effect per entry.
1. O=S1(=O)OC(c2ccc(O)cc2)(c2ccc(O)cc2)c2ccccc21
2. O=S(=O)(N[C@H](CO)C(C(F)(F)F)C(F)(F)F)c1ccc(Cl)s1
3. O=Nc1c(O)[nH]c2c(Cl)c(Cl)ccc12

Result string:
-1.87% (inactive)
-5.1% (inactive)
-0.08% (inactive)

The compound CCOc1ccccc1OC(c1ccccc1)C1CNCCO1 (centres undefined) showed inhibition of SARS-CoV-2 cytopathic effect equal to 1.82% (inactive)

---

# Test system: Vero E6 infected with SARS-CoV-2
# experiment_description: inhibition of SARS-CoV-2 cytopathic effect; higher = more antiviral protection, active = above 15
# test_conditions: 1 nM; 48 h
observation_type: inhibition of SARS-CoV-2 cytopathic effect (%)
Numbers only, in %.

Previously resolved entries follow.
[
  {
    "compound": "C[C@@]1(F)[C@H](O)[C@@H](CO)O[C@H]1n1ccc(N)nc1=O",
    "value_reported": 0.11
  },
  {
    "compound": "NC(=S)N/N=C/c1ccncc1",
    "value_reported": 2.2
  },
  {
    "compound": "CCN(CC)CCCC(C)Nc1ccnc2cc(Cl)ccc12 (stereo not given)",
    "value_reported": -1.07
  },
  {
    "compound": "Cn1cc(-c2cnc3ccc4ccc(CS(=O)(=O)NCc5ccccn5)cc4c(=O)c3c2)cn1",
    "value_reported": 1.02
  }
]

inhibition of SARS-CoV-2 cytopathic effect reading for `CN(C)[C@@H]1C(O)=C(C(N)=O)C(=O)[C@@]2(O)C(O)=C3C(=O)c4c(O)ccc(Cl)c4[C@@H](O)[C@H]3C[C@@H]12` : 1.68

---

# Test system: Vero E6 infected with SARS-CoV-2
# experiment_description: morphology score (similarity to uninfected cells); higher = more like uninfected cells
# test_conditions: 24 h
Note to self: values exactly at 0.1 are 1.0. So morphology score at or above 0.1 is 1.0, below is 0.0.

These solved cases illustrate the format of a correct answer.
[
  {
    "compound": "O=C(OC(C(F)(F)F)C(F)(F)F)N1CCC(C(O)(c2ccc3c(c2)OCO3)c2ccc3c(c2)OCO3)CC1 (10 µM)",
    "category": 1.0
  },
  {
    "compound": "Oc1cccc2cccnc12 [oxyquinoline] (10 µM)",
    "category": 1.0
  },
  {
    "compound": "CCC/N=C1\\S/C(=C\\c2ccc(OC[C@H](O)CO)c(Cl)c2)C(=O)N1c1ccccc1C [ponesimod] (10 µM)",
    "category": 0.0
  },
  {
    "compound": "CCCCCCCCCCCCCCCC(=O)OC[C@H](O)[C@H]1OC(=O)C(O)=C1O [L-ascorbyl-6-palmitate] (10 µM)",
    "category": 0.0
  },
  {
    "compound": "CC(C)(C=O)Cc1cc(C(C)(C)C)c(O)c(C(C)(C)C)c1 (10 µM)",
    "category": 0.0
  }
]

Query string: Is morphology score for Cc1nc(C#Cc2ccnc(Cl)c2)c(C)n1-c1ccc(F)cc1 [basimglurant] (10 µM) at or above 0.1?
Result string: 1.0

Query string: Please tell me: is the compound O=C(O)CCN(O)C(=O)CCCCCCCCC1CC1 (10 µM) at or over 0.1 in terms of morphology score?
Result string: 0.0

Query string: Say whether COC(=O)/C=C/c1cccc(N(Cc2ccc(-c3ccc(N(C)C)cc3)cc2)C(=O)C2CCCCC2)c1 [fexaramine] (10 µM) shows morphology score of 0.1 or more.
Result string: 1.0

---

# System: Vero E6 infected with SARS-CoV-2
# experiment_description: inhibition of SARS-CoV-2 cytopathic effect; higher = more antiviral protection, active = above 15
# test_conditions: 100 nM; 48 h
Exercise: state measured inhibition of SARS-CoV-2 cytopathic effect for each of the molecules provided.
One number for each entry, in %.

Examples with their reported inhibition of SARS-CoV-2 cytopathic effect follow.
[
  {
    "molecule": "Cc1c(F)cc(C(=O)NC2CC2)cc1-c1c(F)cn2c(C(C)(C)C)nnc2c1F",
    "value_reported": -3.43
  },
  {
    "molecule": "CCOC(=O)c1ccc(N)cc1 [benzocaine]",
    "value_reported": -1.89
  }
]

Could I get inhibition of SARS-CoV-2 cytopathic effect for every one of these entries?
1. CC[C@H]1OC(=O)C[C@@H](O)[C@H](C)[C@@H](O[C@@H]2O[C@H](C)C[C@H](N(C)C)[C@H]2O)[C@@H](CC=O)C[C@@H](C)C(=O)/C=C/[C@]2(C)O[C@H]2[C@@H]1C [rosamicin]
2. CCCCCOc1ccc(-c2ccc(-c3ccc(C(=O)N[C@H]4C[C@@H](O)[C@@H](O)NC(=O)[C@@H]5[C@@H](O)[C@@H](C)CN5C(=O)[C@H]([C@@H](C)O)NC(=O)[C@H]([C@H](O)[C@@H](O)c5ccc(O)cc5)NC(=O)[C@@H]5C[C@@H](O)CN5C(=O)[C@H]([C@@H](C)O)NC4=O)cc3)cc2)cc1 [anidulafungin]
3. CCN(CC)Cc1cc(Nc2ccnc3cc(Cl)ccc23)ccc1O [amodiaquine]
4. Fc1ccc(-c2nc3n(c2-c2ccncc2)CCS3)cc1
5. O=[N+]([O-])c1cc(Cl)ccc1S(=O)(=O)N1CCN(Cc2ccccc2)CC1
6. COc1ccnc(C[S+]([O-])c2nc3cc(OC(F)F)ccc3[nH]2)c1OC (centres undefined) [pantoprazole]
7. CN(C)CC[C@@](O)(c1ccccc1)c1ccccc1Cl [clofedanol]

Result string:
1. -1.22
2. 1.56
3. 0.97
4. -1.15
5. -0.96
6. -4.09
7. 1.86

---

Kindly state inhibition of SARS-CoV-2 cytopathic effect for each of the entries shown.
# System: Vero E6 infected with SARS-CoV-2
# experiment_description: inhibition of SARS-CoV-2 cytopathic effect; higher = more antiviral protection, active = above 15
# test_conditions: 10000 nM; 48 h
Numbers only, in %.

[
  {
    "molecule": "COc1ccc(C2C(=O)c3ccccc3C2=O)cc1",
    "measurement_target": "Vero E6 infected with SARS-CoV-2",
    "value_reported": -1.46
  },
  {
    "molecule": "CC[C@@H](C)N(C)C(=O)c1cc2ccccc2c(-c2ccccc2Cl)n1",
    "measurement_target": "Vero E6 infected with SARS-CoV-2",
    "value_reported": 2.78
  },
  {
    "molecule": "C[C@H](N)[C@H](O)c1cccc(O)c1",
    "measurement_target": "Vero E6 infected with SARS-CoV-2",
    "value_reported": 1.14
  },
  {
    "molecule": "O=S1(=O)c2cccc3cccc(c23)N1CCCN1CCN(c2ccc(F)cc2)CC1",
    "measurement_target": "Vero E6 infected with SARS-CoV-2",
    "value_reported": -0.89
  },
  {
    "molecule": "CS(=O)(=O)N1CCN(Cc2cc3nc(-c4cccc5[nH]ncc45)nc(N4CCOCC4)c3s2)CC1",
    "measurement_target": "Vero E6 infected with SARS-CoV-2",
    "value_reported": 3.43
  }
]

I need inhibition of SARS-CoV-2 cytopathic effect for every entry listed below, if you could help.
1. C=C1C(=O)O[C@@H]2/C=C(\C)CC/C=C(\C)CC[C@@H]12 [costunolide]
2. O=C1NC(=O)/C(=C/c2ccc(-c3ccc(F)cc3O)o2)S1
3. CCCc1cc(=O)[nH]c(=S)[nH]1
4. CC(=O)OCC(=O)[C@H]1CC[C@H]2[C@@H]3CCC4=CC(=O)CC[C@]4(C)[C@H]3CC[C@]12C [deoxycorticosterone-acetate]

Result string:
1: 19.3; 2: -0.94; 3: -1.99; 4: -0.48
